TEST DETAILS: Drug repurposing screens with cells derived from glioblastoma tumor samples (AID 1345199); also: % is scaled to controls: 0 for no effect and ±100 for the full control effect; nearly all actives have a fitted effect of over 40% in size
CONDITION INFO: GBM patient neurospheres viability, ATP luminescence, 48 h; at 45.9 µM (top of the series); tumour line B
Records with an inconclusive call do not appear.
Here the recorded activity, negative = cell killing is given for each entry.

MOLECULE	UNIT NAME	activity, negative = cell killing
CN1CCC(=C2c3ccccc3CCc3cccnc32)CC1	%	-11.9
CCOC(=O)c1ccc(OCCN2C[C@H](O)[C@@H](O)[C@H](O)[C@H]2CO)cc1	%	0.0726
COc1ccccc1OCC1CNC(=O)O1 (stereo not drawn)	%	-0.636
Cc1ccccc1N1CCN(CCc2nnc3n2CCCC3)CC1	%	-2
CCOC(=O)NNc1nncc2ccccc12	%	-5.14
CN1CCCN=C1/C=C/c1cccs1	%	-1.18
CC(=O)CC/C=C(\C)CC/C=C(\C)CC/C=C(\C)CCC=C(C)C	%	-12.4
O=C(O)CNC(=O)CNC(=O)CNC(=O)CSC(=O)c1ccccc1	%	2.75
CC1CN(c2cc3c(cc2F)c(=O)c(C(=O)O)cn3-c2ccc(F)cc2F)CCN1 (stereo not drawn)	%	-0.773
CCOC(=O)[C@H](CCc1ccccc1)N[C@@H](C)C(=O)N(CC(=O)O)C1Cc2ccccc2C1	%	-1.19
O=C(O)CCCC[C@@H]1SC[C@@H]2NC(=O)N[C@@H]21	%	-20.7
N[C@@H](Cc1cc(I)c(O)c(I)c1)C(=O)O	%	3.22
CC(=O)OC/C=C(C)/C=C/C=C(C)/C=C/C1=C(C)CCCC1(C)C	%	-7.14
Cc1cccc(C)c1NC(=O)c1cc(S(N)(=O)=O)c(Cl)cc1O	%	-11.2
CO/N=C(/C(=O)N[C@@H]1C(=O)N2C(C(=O)OCOC(=O)C(C)(C)C)=C(C)CS[C@H]12)c1csc(N)n1	%	-3
Nc1c[n+](N2CCOCC2)no1	%	3.67
O=C1CC[C@H](C(=O)N2CCCCC2)N1	%	5.57
CO[C@]1(NC(=O)CSC(F)F)C(=O)N2C(C(=O)O)=C(CSc3nnnn3CCO)CO[C@H]21	%	4.83
CN1C(CSCC(F)(F)F)Nc2cc(Cl)c(S(N)(=O)=O)cc2S1(=O)=O (stereo not drawn)	%	-3.33
CCC(C(=O)NC(=O)NC(C)=O)c1ccccc1 (stereo not drawn)	%	-11.4
O=C(CCCCCCCCC#CI)Oc1ccccc1	%	-16.2
O=C(c1ccccc1)c1ccccc1	%	2.19
CC(=O)Oc1ccc(C2(c3ccc(OC(C)=O)cc3)Oc3ccccc3NC2=O)cc1	%	-28.4

* * *

TEST DETAILS: Cell Viability - LYMP2-009 (AID 968);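 also: cells exposed to compound for 24 h at 37 °C; nearly all actives have a fitted effect of over 55% in size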
CONDITION INFO: LYMP2-009 lymphoblastoid cell viability; series mostly up to 92.2 µM
Inconclusive results are not listed. Active and inactive are the calls of the source. The call rests on the fitted dose curve; in most records, active means well fitted cell-killing curve with a large enough effect; inconclusive means small, poorly fitted or top-dose-only effect; inactive means flat fitted curve, though single readings scatter.
Classes used: Yes for active, No for inactive

COMPOUND	ANSWER LABEL
Nc1c2ccccc2nc2ccccc12	Yes
Oc1ccccc1	No
Brc1ccccc1-c1ccccc1	No
CCCCC(CC)COC(=O)c1ccccc1C(=O)O (stereo not given)	No
Cc1cc(C(C)(C)C)c(O)c(C(C)(C)C)c1	No
Cc1ccc(O)cc1	No
CC(C)(C)c1ccc(O)c(O)c1	Yes
O=C(NO)c1ccccc1	No
OCc1c[nH]c2ccccc12	No
O=C(Oc1ccccc1)c1ccccc1O	No

* * *

Test system: Nanoluciferase (engineered Oplophorus gracilirostris luciferase)
TEST DETAILS: Primary Nanoluciferase (NLuc) qHTS assay for identification of artifact compounds. (AID 1845222)
CONDITION INFO: NLuc-conditioned medium, Nano-Glo luminescence, 5 min; series mostly up to 54.1 µM
Activity calls are given as the source filed them. Calls follow the shape of the dose curve; as a rule, active = well fitted inhibition curve with a large enough effect; inconclusive = small, poorly fitted or top-dose-only effect; inactive = flat fitted curve, though single readings scatter.
Possible outcomes: active, inactive

MOLECULE	ANSWER LABEL
O=[N+]([O-])c1ccc(-c2nc(-c3ccc(F)cc3)c(-c3ccncc3)[nH]2)cc1	inactive
CCOC(=O)Cn1cccc1-c1nc(-c2ccc(OC)cc2)c(-c2ccc(OC)cc2)s1	inactive
Cc1ccccc1C(=O)N1CC/C(=N\OS(=O)(=O)O)c2ccc(Cl)cc21	active
O=[N+]([O-])c1nccn1CO[C@@H](CO)[C@H](O)CO	inactive
CN(CC1(C)CCCO1)S(=O)(=O)c1ccc(Cl)c(S(N)(=O)=O)c1 (stereo unspecified)	inactive
CN1[C@@H]2CC[C@H]1CC(NC(=O)n1c(=O)[nH]c3ccccc31)C2 (stereo partly specified)	inactive

* * *

TEST DETAILS: qHTS of pediatric cancer cell lines to identify multiple opportunities for drug repurposing: Primary screen for A673 cells (AID 1347092); also: nearly all actives have a fitted effect of over 45% in size
CONDITION INFO: A673 Ewing sarcoma viability, CellTiter-Glo ATP luminescence, 48 h; series mostly up to 46 µM
Records with an inconclusive call do not appear. The source made the active and inactive calls. Calls follow the shape of the dose curve; as a rule, active = well fitted cell-killing curve with a large enough effect; inconclusive = small, poorly fitted or top-dose-only effect; inactive = no such curve, though single readings can be large or run the other way.
Outcome codes: YES for active, NO for inactive

MOLECULE	ANSWER LABEL
CCC(C(=O)OCCN1CCOC(c2ccccc2)C1C)c1ccccc1 (configuration not stated)	NO
CCCCC(=O)OCC(=O)[C@H]1[C@H](C)C[C@H]2[C@@H]3C[C@H](F)C4=CC(=O)C=C[C@]4(C)[C@@]3(F)[C@@H](O)C[C@@]21C	NO
OCCCc1ccccc1	NO
CC(C)NC(=O)c1ccc(C=O)cc1	NO
COc1ccc2nc(SCc3ncc(C)c(OC)c3C)[nH]c2c1	NO
NS(=O)(=O)c1ccc(N2CCCCS2(=O)=O)cc1	NO
Cc1cccc(OCC(O)CNC(C)(C)C)c1C (configuration not stated)	NO
CCCC(=O)Nc1ccc(O)c(C(C)=O)c1	NO
CN1CC[C@H](c2c(O)cc(O)c3c(=O)cc(-c4ccccc4Cl)oc23)[C@H](O)C1	YES
O=c1[nH]c(=O)n([C@H]2O[C@H](CO)[C@@H](O)[C@@H]2O)cc1/C=C\Br	NO
O=C(O)c1cn(C2CC2)c2cc(Cl)c(F)cc2c1=O	NO
CCOC(=O)Cn1cccc1-c1nc(-c2ccc(OC)cc2)c(-c2ccc(OC)cc2)s1	NO
CN1CC(=O)N2[C@H](c3ccc4c(c3)OCO4)c3[nH]c4ccccc4c3C[C@@H]2C1=O	NO
CCOC(=O)c1cc(=O)c2c(OCC(COc3cccc4oc(C(=O)OCC)cc(=O)c34)OC(=O)[C@@H](N)CCCCN)cccc2o1	NO
CNC[C@H](O)[C@@H](O)[C@H](O)[C@H](O)CO	NO
CCO[C@H](Cc1ccc(OCCc2ccc(OS(C)(=O)=O)cc2)cc1)C(=O)O	NO
CCOC(=O)CN1CCCC1=O	NO
O=C(OCC(COC(=O)c1cccnc1)(COC(=O)c1cccnc1)COC(=O)c1cccnc1)c1cccnc1	NO
O=C(O)CCCC[C@@H]1SC[C@@H]2NC(=O)N[C@@H]21	NO
CCCc1ncc(C(=O)O)s1	NO
O=C(O)Cn1cnnn1	NO
O=C(CCCl)NCc1ccccc1	NO
O=C1NC(c2ccccc2)(c2ccccc2)C(=O)N1COP(=O)(O)O	NO
CN1CCC(=C2c3ccccc3CCc3cccnc32)CC1	NO
CCOCCn1c(C2CCN(CCc3ccc(C(C)(C)C(=O)O)cc3)CC2)nc2ccccc21	NO
CCCCCOc1ccccc1/C(=C\SC)n1ccnc1	YES
C[N+]1(C)CCC(OC(=O)C(O)(c2ccccc2)C2CCCC2)C1 (configuration not stated)	NO
CN(CC1(C)CCCO1)S(=O)(=O)c1ccc(Cl)c(S(N)(=O)=O)c1 (configuration not stated)	NO
OC1(c2ccc(Cl)c(C(F)(F)F)c2)CCN(CCCC(c2ccc(F)cc2)c2ccc(F)cc2)CC1	YES
CCN(CC)CCN	NO
CCCCCN(CCCOC)C(=O)C(CCC(=O)O)NC(=O)c1ccc(Cl)c(Cl)c1 (configuration not stated)	NO
COc1ccc(CCC(C)=O)cc1	NO
OCCc1ccccc1	NO
CC(=O)Nc1ccn(C2COC(COC(=O)c3ccccc3)O2)c(=O)n1 (configuration not stated)	YES
CCC(=O)O[C@]1(C(=O)COC)[C@@H](C)C[C@H]2[C@@H]3CCC4=CC(=O)C=C[C@]4(C)C3(F)[C@@H](O)C[C@@]21C (some centres not stated)	NO
C=CC[N+]1([C@H]2C[C@H]3[C@@H]4CC[C@H]5C[C@H](OC(C)=O)[C@@H](N6CCCCC6)C[C@]5(C)[C@H]4CC[C@]3(C)[C@H]2OC(=O)CC)CCCCC1	NO
C/C(=N\O)[C@@H](C)NCC(C)(C)CN[C@H](C)/C(C)=N/O	NO
COc1cc(NS(=O)(=O)c2ccc(N)cc2)nc(C)n1	NO
CC(C)(C)c1ccc(C(=O)CCCCl)cc1	NO
CCOC(=O)C(=O)CCCCCCl	NO
Nc1c2ccccc2nc2ccccc12	YES
[O-][n+]1cccc(/C(Cl)=N/OC[C@@H](O)CN2CCCCC2)c1	NO
CN(C)CCN1CCN(c2cccc(Cl)c2)C1=O	NO
CC(Oc1c(Cl)cccc1Cl)C1=NCCN1 (configuration not stated)	NO
NC(=O)NC1N=C([O][Al])NC1=O (configuration not stated)	NO
O=C1CCCc2c(O)cccc21	NO
CCCCCCCCCCCCCC[N+](C)(C)C	YES
